- SUBJECT OF TEST: GST-TMEM106B (truncated, comprising amino acids 122-210 of SEQ ID NO:1) (Homo sapiens, UniProt Q9NUM4)
- Sequence (Q9NUM4 122-210): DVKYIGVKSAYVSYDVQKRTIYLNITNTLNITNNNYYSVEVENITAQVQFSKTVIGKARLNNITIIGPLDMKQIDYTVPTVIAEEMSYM
- ASSAY OVERVIEW: Pre-mix epitope binning of anti-TMEM106B antibodies (Carterra / Lake Pharma)
- Type: binding
- Design: key: Bin 1: competes for binding to the same or overlapping TMEM106B region as the TM1, TM17, TM22, TM26, TM79, and/or TM82 antibodies; Bin 2: competes for binding to the same or overlapping TMEM106B region as the TM3, TM9, TM10, TM11, TM12, TM13, TM18, TM19, TM21, TM24, TM25, TM32, TM35, TM37, TM42, TM45, TM48, TM54, TM59, TM60, TM61, and/or TM76 antibodies; Bin 3: competes for binding to the same or overlapping TMEM106B region as the TM7, TM15, TM83, and/or TM84 antibodies; Bin 4: competes for binding to the same or overlapping TMEM106B region as the TMS, TM28, TM29, TM30, TM63, TM64, TM72, TM78, TM80, TM86, and/or TM88 antibodies; Bin 5: does not bind to a truncated TMEM106B comprising amino acids 122-210 of SEQ ID NO:1
- CONDITION DETAILS: competition for binding to truncated GST-TMEM106B (amino acids 122-210)
MEASURED METRIC: epitope bin

TM-84: anti-TMEM106B monoclonal antibody; VH SEQ ID NO: 489, VL SEQ ID NO: 524 (antibody, V domains shown, Variable Heavy Chain -- TM-84; Variable Light Chain -- TM-84) VH: QVQLQQSGAELVKPGASVKMSCKASGYTFTTFPIEWMKQNHGKSLEWIGNFHPYNDDTKYNEKFKGKATLTVEKSSSTVYLELSRLTSDDSAVYYCARYFYGGMDYWGQGTSVTVSS VL: DIQMTQSPASLSVSVGETVTITCRASENIYSSLGWYHQKQGKSPQLLVFAATNLADGVPSRFSGSGSGTQYSLKINSLQSEDFGTYYCQHLWSVPWTFGGGTKLEIK | Bin 3
TM-80: anti-TMEM106B monoclonal antibody; VH SEQ ID NO: 485, VL SEQ ID NO: 520 (antibody, V domains shown, Variable Heavy Chain -- TM-80; Variable Light Chain -- TM-80) VH: QVQLQQPGAELVKPGASVKLSCKASGYTFTTFWMHWVKQRPGQGLEWIGNIDPSDSETHYNQEFKDKATLTVDRSSNTAYMQLSSLTSEDSAVYYCARSSNWDNFDYWGQGTAVTVSS VL: DIVMTQAAPSVPVTPGESVSISCRSSQSLLHVNGHTYLYWFLQRPGQSPQLLIYRMSNLASGVPDRFSGSGSGTVFTLRISRVETEDVGIYYCMQHLQYPFTFGSGTKLEIK | Bin 4
